Biological target: purified human von Willebrand factor (vWF) (human, UniProt P04275 764-2813)
Assay: cell-based or functional assay
This listing pairs binders with measured EC50.
Quick note: give the figure in pM, leave out the unit.

binder: humanized NMC-4 variant H9, L5 (IgG1) (antibody, V domains shown) VH: QVQLQESGPGLVKPSETLSLTCTVSGFSLTDYGVDWIRQPPGKGLEWIGMIWGDGSTDYNSALKSRVTISVDTSKNQFSLKLSSVTAADTAVYYCARDPADYGNYDYALDYWGQGTLVTVSS VL: DIQMTQSPSSLSASVGDRVTITCSASQDINKYLNWYQQKPGKAVKLLIFYTSSLHSGVPSRFSGSGSGTDYTLTISSLQPEDIATYYCQQYEKLPWTFGQGTKVEIK
EC50 [pM]: 140
--
binder: humanized NMC-4 variant H9, L7 (IgG1) (antibody, V domains shown) VH: QVQLQESGPGLVKPSETLSLTCTVSGFSLTDYGVDWIRQPPGKGLEWIGMIWGDGSTDYNSALKSRVTISVDTSKNQFSLKLSSVTAADTAVYYCARDPADYGNYDYALDYWGQGTLVTVSS VL: DIQMTQSPSSLSASVGDRVTITCSASQDINKYLNWYQQKPGKAVKLLIFYTSSLHSGVPSRFSGSGSGTDFTLTISSLQPEDIATYYCQQYEKLPWTFGQGTKVEIK
EC50 [pM]: 110

Lookup: Tell me measured EC50 for humanized NMC-4 variant H2, L6 (IgG1) (antibody, V domains shown) VH: QVQLQESGPGLVKPSETLSLTCTVSGFSLTDYGVDWIRQPPGKGLEWIGMIWGDGSTDYNSALKSRLTISKDNSKNQVSLKLSSVTAADTAVYYCVRDPADYGNYDYALDYWGQGTSLTVSS VL: DIQMTQSPSSLSASVGDRVTITCSASQDINKYLNWYQQKPGKAVKLLIYYTSSLHSGVPSRFSGSGSGTDYTLTISSLQPEDIATYYCQQYEKLPWTFGQGTKVEIK please.
Found: 140

Lookup: Determine from records and report EC50 for humanized NMC-4 variant H4, L5 (IgG1) (antibody, V domains shown) VH: QVQLQESGPGLVKPSETLSLTCTVSGFSLTDYGVDWIRQPPGKGLEWIGMIWGDGSTDYNSALKSRLTISKDNSKNQVSLKLSSVTAADTAVYYCARDPADYGNYDYALDYWGQGTSLTVSS VL: DIQMTQSPSSLSASVGDRVTITCSASQDINKYLNWYQQKPGKAVKLLIFYTSSLHSGVPSRFSGSGSGTDYTLTISSLQPEDIATYYCQQYEKLPWTFGQGTKVEIK
Found: 150

Lookup: Respond only with EC50 recorded for humanized NMC-4 variant H9, L9 (CDR-grafted), IgG1 (antibody, V domains shown) VH: QVQLQESGPGLVKPSETLSLTCTVSGFSLTDYGVDWIRQPPGKGLEWIGMIWGDGSTDYNSALKSRVTISVDTSKNQFSLKLSSVTAADTAVYYCARDPADYGNYDYALDYWGQGTLVTVSS VL: DIQMTQSPSSLSASVGDRVTITCSASQDINKYLNWYQQKPGKAPKLLIYYTSSLHSGVPSRFSGSGSGTDFTLTISSLQPEDFATYYCQQYEKLPWTFGQGTKVEIK
Found: 120

Lookup: Complete the entry with EC50 for humanized NMC-4 variant H8, L5 (IgG1) (antibody, V domains shown) VH: QVQLQESGPGLVKPSETLSLTCTVSGFSLTDYGVDWIRQPPGKGLEWIGMIWGDGSTDYNSALKSRLTISKDNSKNQFSLKLSSVTAADTAVYYCVRDPADYGNYDYALDYWGQGTSLTVSS VL: DIQMTQSPSSLSASVGDRVTITCSASQDINKYLNWYQQKPGKAVKLLIFYTSSLHSGVPSRFSGSGSGTDYTLTISSLQPEDIATYYCQQYEKLPWTFGQGTKVEIK
Found: 280

Lookup: Find the measured EC50 of humanized NMC-4 variant H5, L5 (IgG1) (antibody, V domains shown) VH: QVQLQESGPGLVKPSETLSLTCTVSGFSLTDYGVDWIRQPPGKGLEWIGMIWGDGSTDYNSALKSRVTISKDNSKNQVSLKLSSVTAADTAVYYCVRDPADYGNYDYALDYWGQGTSLTVSS VL: DIQMTQSPSSLSASVGDRVTITCSASQDINKYLNWYQQKPGKAVKLLIFYTSSLHSGVPSRFSGSGSGTDYTLTISSLQPEDIATYYCQQYEKLPWTFGQGTKVEIK and report it.
Found: 180

Lookup: Tell me its EC50 given humanized NMC-4 variant H2, L4 (IgG1) (antibody, V domains shown) VH: QVQLQESGPGLVKPSETLSLTCTVSGFSLTDYGVDWIRQPPGKGLEWIGMIWGDGSTDYNSALKSRLTISKDNSKNQVSLKLSSVTAADTAVYYCVRDPADYGNYDYALDYWGQGTSLTVSS VL: DIQMTQSPSSLSASVGDRVTITCSASQDINKYLNWYQQKPGKAPKLLIFYTSSLHSGVPSRFSGSGSGTDYTLTISSLQPEDIATYYCQQYEKLPWTFGQGTKVEIK as the entry.
Found: 140

Lookup: Return the recorded EC50 value; entry: humanized NMC-4 variant H6, L5 (IgG1) (antibody, V domains shown) VH: QVQLQESGPGLVKPSETLSLTCTVSGFSLTDYGVDWIRQPPGKGLEWIGMIWGDGSTDYNSALKSRLTISVDNSKNQVSLKLSSVTAADTAVYYCVRDPADYGNYDYALDYWGQGTSLTVSS VL: DIQMTQSPSSLSASVGDRVTITCSASQDINKYLNWYQQKPGKAVKLLIFYTSSLHSGVPSRFSGSGSGTDYTLTISSLQPEDIATYYCQQYEKLPWTFGQGTKVEIK
Found: 180

Lookup: Return EC50 (reported value) for this binder: humanized NMC-4 variant H2, L5 (IgG1) (antibody, V domains shown) VH: QVQLQESGPGLVKPSETLSLTCTVSGFSLTDYGVDWIRQPPGKGLEWIGMIWGDGSTDYNSALKSRLTISKDNSKNQVSLKLSSVTAADTAVYYCVRDPADYGNYDYALDYWGQGTSLTVSS VL: DIQMTQSPSSLSASVGDRVTITCSASQDINKYLNWYQQKPGKAVKLLIFYTSSLHSGVPSRFSGSGSGTDYTLTISSLQPEDIATYYCQQYEKLPWTFGQGTKVEIK
Found: 130
